assay: Oral toxicity (mortality) in the mouse, Table 1; type: in vivo; conditions: mouse, in vivo, po, 500 mg/kg, Swiss mice, 14 days
Measure: mortality at 336 h (%)
Just the number please, in %, no unit attached.

Give its mortality at 336 h value. Item: CN(C)CCc1cc2c(cc1N=Cc1ccc(Cl)cc1)OCO2 [COR 01 208]
0

Quick one: C(=Nc1cc2c(cc1CCN1CCOCC1)OCO2)c1cccs1 [COR 01 180]
0

Repeat with C(=Nc1cc2c(cc1CCN1CCCC1)OCO2)c1cccnc1 [COR 01 173]
0

And C(=Nc1cc2c(cc1CCN1CCCCC1)OCO2)c1cccs1 [COR 01 175] ?
10

What about this compound? CN(C)CCc1cc2c(cc1N=Cc1ccc(Br)s1)OCO2 [COR 01 181]
30

###

system: phenylbenzoquinone (PBQ); assay: Analgesic activity using phenylbenzoquinone (PBQ) as noxious agent, Table 2; type: in vivo, male Swiss mouse; conditions: Mus musculus, read-out: % of analgesic activity, 100 mg/kg, male Swiss mouse, PBQ
Classify by measured inhibition in vivo at 100 mg/kg: class 1 if it is equal to or exceeds 30%, class 0 if it is smaller.

Assess whether reported inhibition in vivo at 100 mg/kg for CC(C)(C)NCCc1cc2c(cc1N=Cc1cccnc1)OCO2 [COR 01 195] sits at 30% or higher.
class 0

// repeat for CN(C)CCc1ccccc1N=Cc1cccnc1 [COR 01 184] and report
class 1

What do you have for CC(Cc1ccccc1N=Cc1cccnc1)N(C)C (centres unmarked) [COR 01 214] ?
class 0

// same read-out, input: CC(=O)Oc1ccccc1C(=O)O [Acetylsalicyclic acid, reference compound]
class 1

Item: CN(C)CCc1cc2c(cc1N=Cc1cccs1)OCO2 [COR 01 151]
class 1

What about this molecule? CN(C)CCc1cc2c(cc1N=CC=Cc1ccccc1)OCO2 [COR 01 176]
class 0

Please do the same for Cc1ccc(C=Nc2cc3c(cc2CCN(C)C)OCO3)s1 [COR 01 169] as well.
class 1

What do we get for COc1ccc(C=Nc2cc3c(cc2CCN(C)C)OCO3)cc1 [COR 01 210] ?
class 0

Would you mind doing CN(C)CCc1cc2c(cc1N=Cc1ccc(Br)s1)OCO2 [COR 01 181] as well?
class 1

Input CN(C)CCc1cc2c(cc1N=Cc1ccc[n+]([O-])c1)OCO2 [COR 01 203]
class 1

###

System: number of displacements of the animal
Assay: Four plates test (anxiolytic activity), Table 5
Type: in vivo
Details: 10 mg/kg, oral, mouse
Excerpt: The psychotropic profile of the present invention products has been characterized with the animals in numerous tests some of whose results are shown hereinafter. The products of the invention were always administered orally in 6% gum base. A certain number of products manifest an anxiolytic activity evidenced in the test with the four plates with the mouse (Table 5). % of increase in the number of displacements of the animal as a function of the dose expressed in mg/kg
For each entry below, report its % of increase in the number of displacements of the animal value.

Look up % of increase in the number of displacements of the animal with number of displacements of the animal for this compound: CN(C)CCc1ccccc1N=Cc1cccnc1
+61%

Now the compound C(=Nc1cc2c(cc1CCN1CCCC1)OCO2)c1cccnc1
+30%

Subsequent entry: CN(C)CCc1cc2c(cc1N=CC=Cc1ccccc1)OCO2
+72%

Please answer likewise for C(=Cc1ccccc1)C=Nc1cc2c(cc1CCN1CCCC1)OCO2
+180%

###

test: Oral toxicity (mortality) in the mouse, Table 1; type: in vivo; conditions: mouse, in vivo, po, 1000 mg/kg, Swiss mice, 14 days
Measure: mortality at 336 h
Remember to quote the unit after the number.

Value lookup for mortality at 336 h; key = CN(C)CCc1cc2c(cc1N=Cc1ccc[n+]([O-])c1)OCO2 [COR 01 203]
0%

Then CC(Cc1ccccc1N=Cc1cccnc1)N(C)C (stereo not shown) [COR 01 214] ?
0%

Next record, please: C(=Cc1ccccc1)C=Nc1cc2c(cc1CCN1CCCC1)OCO2 [COR 01 200]
10%

Now try CN(C)CCc1cc2c(cc1N=Cc1ccc(Cl)c(Cl)c1)OCO2 [COR 01 207] .
20%

###

test: Oral toxicity (mortality) in the mouse, Table 1; type: in vivo; details: mouse, in vivo, po, 2000 mg/kg, Swiss mice, 14 days
Field: label. Allowed values: Met (mortality at 336 h < 70%) or Not met (mortality at 336 h >= 70%).

Criterion: mortality at 336 h strictly below 70%. Is it met by CN(C)CCc1ccccc1N=CC=Cc1ccccc1 ?
Not met

Moving on to C(=Nc1cc2c(cc1CCN1CCOCC1)OCO2)c1cccnc1
Met

Please do the same for CC(C)(C)NCCc1cc2c(cc1N=Cc1cccnc1)OCO2 as well.
Met

Next compound up: CN(C)CCc1cc2c(cc1N=Cc1ccc(Cl)cc1)OCO2
Not met

###

system: number of escapes the animal made in 5 minutes; assay: Escape test, Table 3; assay type: in vivo, mouse; conditions: 5 min; 50 mg/kg, oral, mouse, 5 minutes; read-out: % of activity (variation of the number of escapes)
If the reported change in vivo at 50 mg/kg equals or exceeds -20%, assign Fulfilled. If not, assign Not fulfilled.

Form field: change in vivo at 50 mg/kg at least -20%? Entry: C(=Nc1cc2c(cc1CCN1CCCC1)OCO2)c1cccnc1 [COR 01 173]
Not fulfilled

And for C(=Nc1cc2c(cc1CCN1CCOCC1)OCO2)c1cccnc1 [COR 01 204] ?
Not fulfilled

One more compound: C(=Cc1ccccc1)C=Nc1cc2c(cc1CCN1CCCC1)OCO2 [COR 01 200]
Fulfilled

Try C(=Nc1cc2c(cc1CCN1CCOCC1)OCO2)c1cccs1 [COR 01 180] next.
Not fulfilled

CN(C)CCc1ccccc1N=Cc1cccnc1 [COR 01 184] ?
Not fulfilled

###

Assign mortality at 336 h to each entry below.
experiment: Oral toxicity (mortality) in the mouse, Table 1; format: in vivo; conditions: mouse, in vivo, po, 250 mg/kg, Swiss mice, 14 days
Kindly answer with a numeric value in %, unit omitted.

Look up mortality at 336 h for this compound: CN(C)CCc1cc2c(cc1N=Cc1ccc(Br)s1)OCO2
0

C(=Nc1cc2c(cc1CCN1CCCCC1)OCO2)c1cccs1 , same question.
0

###

Exercise: state measured % of increase in the number of displacements of the animal for each of the compounds provided.
tested on: number of displacements of the animal; test: Four plates test (anxiolytic activity), Table 5; type: in vivo; settings: 25 mg/kg, oral, mouse

Could you tell me which % of increase in the number of displacements of the animal is on file for C(=Nc1cc2c(cc1CCN1CCOCC1)OCO2)c1cccs1 ?
+69%

Would you kindly repeat that for CN(C)CCc1cc2c(cc1N=CC=Cc1ccccc1)OCO2 ?
+66%

Try the compound C(=Cc1ccccc1)C=Nc1cc2c(cc1CCN1CCCC1)OCO2
+142%

Request: C(=Nc1cc2c(cc1CCN1CCCCC1)OCO2)c1cccnc1
+48%

Another: CN(C)CCc1cc2c(cc1N=Cc1cccnc1)OCO2
+18%

###

system: trembling induced by oxotremorine; experiment: Antagonism of trembling induced by oxotremorine, Table 7; format: in vivo; conditions: 100 mg/kg, oral; read-out: % of inhibition of trembling induced by oxotremorine
Measure: change in vivo at 100 mg/kg (%)
Numbers only here, please. The scale is %.

What measured change in vivo at 100 mg/kg goes with C(=Nc1cc2c(cc1CCN1CCCC1)OCO2)c1cccnc1 ?
-60

// next record C(=Nc1cc2c(cc1CCN1CCOCC1)OCO2)c1cccs1
-44

How about this compound: CN1CCN(CCc2ccccc2N=Cc2cccnc2)CC1
-30

Now try C(=Nc1cc2c(cc1CCN1CCOCC1)OCO2)c1cccnc1 .
-20

###

Can you tell me mortality at 336 h for the items I'm about to list?
test: Oral toxicity (mortality) in the mouse, Table 1; type: in vivo; conditions: mouse, in vivo, po, 2000 mg/kg, Swiss mice, 14 days
Respond with the bare value in %.

I would be grateful if you could share the reported mortality at 336 h for CN(C)CCc1cc2c(cc1N=Cc1ccc[n+]([O-])c1)OCO2 [COR 01 203] .
40

Also CN(C)CCc1cc2c(cc1N=Cc1ccc(Cl)c(Cl)c1)OCO2 [COR 01 207] , if possible.
40

# iterate: C(=Nc1cc2c(cc1CCN1CCCCC1)OCO2)c1cccnc1 [COR 01 174]
50

How about CN(C)CCc1cc2c(cc1N=Cc1ccccc1C(=O)O)OCO2 [COR 01 142] ?
50

How about this compound: CN(C)CCc1ccccc1N=Cc1cccnc1 [COR 01 184]
30

Query Cc1ccc(C=Nc2cc3c(cc2CCN(C)C)OCO3)cc1 [COR 01 206] next
50

Would you mind doing COc1ccc(C=Nc2cc3c(cc2CCN(C)C)OCO3)cc1 [COR 01 210] as well?
20

Param item: CN(C)CCc1cc2c(cc1N=Cc1ccccc1)OCO2 [COR 01 209]
60

Also need CN(C)CCc1cc2c(cc1N=Cc1cccnc1)OCO2 [COR 01 201] , thanks.
30

Subsequent entry: CN1CCN(CCc2ccccc2N=Cc2cccnc2)CC1 [COR 01 205]
10
